# assayed.target: CB2 receptor (human) (Homo sapiens, UniProt P34972)
# Construct: expressed in transfected cells
# Sequence (P34972 whole entry): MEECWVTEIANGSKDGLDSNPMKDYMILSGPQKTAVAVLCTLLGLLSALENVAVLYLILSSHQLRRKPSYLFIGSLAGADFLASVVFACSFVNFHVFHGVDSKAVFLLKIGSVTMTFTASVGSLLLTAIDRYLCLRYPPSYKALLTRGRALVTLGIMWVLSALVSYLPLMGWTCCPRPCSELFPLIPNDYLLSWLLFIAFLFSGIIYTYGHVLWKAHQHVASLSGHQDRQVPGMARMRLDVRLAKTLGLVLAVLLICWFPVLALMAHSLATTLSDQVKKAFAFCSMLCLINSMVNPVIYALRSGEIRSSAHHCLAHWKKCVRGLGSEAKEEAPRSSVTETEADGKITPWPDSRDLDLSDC
# test.details: Functional cell-based assay, CB2 receptor mediated change in CRE β-gal expression (adenylate cyclase activity) in SK-N-MC cells
pEC50: −log10 of the molar value.
endpoint.name: pEC50

compound	assayed.target	endpoint.name	observed.measurement
Cc1ccc(S(=O)(=O)N2CCc3c(c(C(=O)NC4C5(C)CCC(C5)C4(C)C)nn3C3CCCCC3)C2)cc1 (stereo not drawn) [Cpd 124]	CB2 receptor (human) (Homo sapiens, UniProt P34972)	pEC50	7.52
CCOC(=O)N1CCc2c(c(C(=O)NC3C4(C)CCC(C4)C3(C)C)nn2C2CCCCC2)C1 (stereo not drawn) [Cpd 120]	CB2 receptor (human) (Homo sapiens, UniProt P34972)	pEC50	7.30
COC(=O)N1CCc2c(c(C(=O)NC3C4(C)CCC(C4)C3(C)C)nn2Cc2ccccc2)C1 (stereo not drawn) [Cpd 106]	CB2 receptor (human) (Homo sapiens, UniProt P34972)	pEC50	9.10
CCOC(=O)N1CCc2c(c(C(=O)NC3C4(C)CCC(C4)C3(C)C)nn2Cc2ccccc2)C1 (stereo not drawn) [Cpd 107]	CB2 receptor (human) (Homo sapiens, UniProt P34972)	pEC50	8.22
CC(=O)N1CCc2c(c(C(=O)NC3C4(C)CCC(C4)C3(C)C)nn2C2CCCCC2)C1 (stereo not drawn) [Cpd 123]	CB2 receptor (human) (Homo sapiens, UniProt P34972)	pEC50	7.85
COC(=O)N1CCc2c(c(C(=O)NC3C4(C)CCC(C4)C3(C)C)nn2C2CCCCC2)C1 (stereo not drawn) [Cpd 119]	CB2 receptor (human) (Homo sapiens, UniProt P34972)	pEC50	7.70

----------
# assayed.target: CB1 receptor (human) (Homo sapiens)
# Sequence (P21554 whole entry): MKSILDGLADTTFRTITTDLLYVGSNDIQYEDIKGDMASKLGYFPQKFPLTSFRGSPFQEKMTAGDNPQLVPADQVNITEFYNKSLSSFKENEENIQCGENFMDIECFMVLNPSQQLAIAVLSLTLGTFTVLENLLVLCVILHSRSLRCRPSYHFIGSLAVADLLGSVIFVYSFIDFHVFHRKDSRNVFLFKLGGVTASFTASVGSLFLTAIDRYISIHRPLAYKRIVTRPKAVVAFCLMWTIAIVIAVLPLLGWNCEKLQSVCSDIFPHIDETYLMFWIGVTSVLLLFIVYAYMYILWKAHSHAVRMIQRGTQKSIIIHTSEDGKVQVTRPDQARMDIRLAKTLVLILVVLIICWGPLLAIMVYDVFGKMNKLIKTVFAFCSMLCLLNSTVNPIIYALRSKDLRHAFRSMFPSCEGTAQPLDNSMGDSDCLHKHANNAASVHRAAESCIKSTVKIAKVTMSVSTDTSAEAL
# test.details: cell-based
pEC50: −log10 of the molar value.
Returns one of 1 or 0; 1 when pEC50 is >= 8.

compound	label.class
C[C@@H](NC(=O)c1nn(-c2ccc(Cl)cc2Cl)c2c1CN(S(C)(=O)=O)C/C2=C\c1ccc(F)cc1)C1CCCCC1	1
CCNC(=O)N1C/C(=C\c2ccc(OC)cc2)c2c(c(C(=O)N[C@H](C)c3ccccn3)nn2-c2ccc(Cl)cc2Cl)C1	1
C[C@@H](NC(=O)c1nn(-c2ccc(Cl)cc2Cl)c2c1CN(C(=O)OCc1ccccc1)C/C2=C\c1ccc(F)cc1)c1ccccc1	0
C[C@@H](NC(=O)c1nn(-c2ccc(Cl)cc2)c2c1CN(S(=O)(=O)N(C)C)C/C2=C\c1ccc(F)cc1)c1ccccc1	1
COc1ccc(/C=C2\CN(C(C)=O)Cc3c(C(=O)NN4CCCCC4)nn(-c4ccc(Cl)cc4Cl)c32)cc1	1
COc1ccc(/C=C2\CN(S(C)(=O)=O)Cc3c(C(=O)NC(C)c4ccccn4)nn(-c4ccc(Cl)cc4Cl)c32)cc1 (stereo not drawn)	1

----------
Parameter inhibition at 0.2 µM: see the listing below.
# assayed.target: Cannabinoid CB2 Receptor (Homo sapiens, UniProt P34972)
# Construct: expressed in transfected cells
# Sequence (P34972 whole entry): as the sequence (P34972 whole entry) above
# test.details: Binding assay for CB2 agonists or inverse agonists (radioligand competition, membranes of transfected SK-N-MC cells)
# condition: read-out: Cannabinoid CB2 Receptor Binding percent inhibition

molecule	inhibition at 0.2 µM
CCOC(=O)CN1C/C(=C\c2ccc(OC)cc2)c2c(c(C(=O)NC(C)c3ccccn3)nn2-c2ccc(Cl)cc2Cl)C1 (stereo not shown) [Cpd 65]	39%
C[C@H](NC(=O)c1nn(-c2ccc(Cl)cc2Cl)c2c1CN(C(=O)OC(C)(C)C)C/C2=C\c1ccc(F)cc1)C1CCCCC1 [Cpd 4]	9%
C[C@@H](NC(=O)c1nn(-c2ccc(Cl)cc2)c2c1CN(S(=O)(=O)N(C)C)C/C2=C\c1ccc(F)cc1)c1ccccc1 [Cpd 70]	13%
C[C@@H](NC(=O)c1nn(-c2ccc(Cl)cc2Cl)c2c1CN(C(=O)OC(C)(C)C)C/C2=C\c1ccc(F)cc1)C1CCCCC1 [Cpd 8]	34%
CC(=O)N1C/C(=C\c2ccc(F)cc2)c2c(c(C(=O)N(C(C)=O)N3CCCCC3)nn2-c2ccc(Cl)cc2Cl)C1 [Cpd 134]	26%
CC(NC(=O)c1nn(-c2ccc(Cl)cc2)c2c1CNC/C2=C\c1ccc(F)cc1)c1ccccn1 (stereo not shown) [Cpd 75]	0%
C[C@@H](NC(=O)c1nn(-c2ccc(Cl)cc2Cl)c2c1CN(S(C)(=O)=O)C/C2=C\c1ccc(F)cc1)c1ccccn1 [Cpd 140]	9%
CC(NC(=O)c1nn(-c2ccc(Cl)cc2Cl)c2c1CN(C)C/C2=C\c1ccc(F)cc1)c1ccccn1 (stereo not shown) [Cpd 29]	6%
COC(=O)N1C/C(=C\c2ccc(F)cc2)c2c(c(C(=O)NN3CC4CCCC4C3)nn2-c2ccc(Cl)cc2Cl)C1 (stereo not shown) [Cpd 92]	4%
COc1ccc(/C=C2\CNCc3c(C(=O)N[C@H](C)c4ccccc4)nn(-c4ccc(Cl)cc4Cl)c32)cc1 [Cpd 38]	25%
CC(=O)N1C/C(=C\c2ccc(F)cc2)c2c(c(C(=O)N[C@@H](C)C3CCCCC3)nn2-c2ccc(Cl)cc2Cl)C1 [Cpd 6]	14%
CCCCn1nc(C(=O)NC2C3(C)CCC(C3)C2(C)C)c2c1CCN(C(=O)OC)C2 (stereo not shown) [Cpd 116]	53%
CC(C)(C)OC(=O)N1C/C(=C\c2ccc(F)cc2)c2c(c(C(=O)NN3CCCCC3)nn2-c2ccc(Cl)cc2Cl)C1 [Cpd 9]	8%
CC(NC(=O)c1nn(-c2ccc(Cl)cc2Cl)c2c1CN(S(C)(=O)=O)C/C2=C\c1ccc(F)cc1)c1ccccn1 (stereo not shown) [Cpd 27]	16%
C[C@@H](NC(=O)c1nn(-c2ccc(Cl)cc2Cl)c2c1CN(C=O)C/C2=C\c1ccc(F)cc1)c1ccccc1 [Cpd 46]	18%
COC(=O)N1C/C(=C\c2ccc(OC)cc2)c2c(c(C(=O)N[C@H](C)c3ccccn3)nn2-c2ccc(Cl)cc2Cl)C1 [Cpd 96]	56%
COc1ccc(/C=C2\CN(C=O)Cc3c(C(=O)N[C@H](C)c4ccccc4)nn(-c4ccc(Cl)cc4Cl)c32)cc1 [Cpd 45]	45%
CCNC(=O)N1C/C(=C\c2ccc(OC)cc2)c2c(c(C(=O)N[C@H](C)c3ccccc3)nn2-c2ccc(Cl)cc2Cl)C1 [Cpd 41]	27%
CCNC(=O)N1CCc2c(c(C(=O)NC3C4(C)CCC(C4)C3(C)C)nn2-c2ccccc2)C1 (stereo not shown) [Cpd 114]	34%
